B1: SNX8 (parent)
chain: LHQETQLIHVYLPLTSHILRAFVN

Variants of: B1
measurementDescription: protein stability index of a GFP-peptide fusion (GPS, HEK-293T) (PSI 1-6); higher = more stable;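 also: lentivirally expressed fusions sorted by FACS into six bins by GFP to DsRed ratio, PSI derived from sequencing read proportions per bin multiplied by bin number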
conditionSet: c terminus: a fixed tail appended
Rule: 1 for protein stability index not less than 2, -1 for anything less.

Please review the entries below; each comes with its answer.
>>> category("L12Q")
1
>>> category("Q6C")
1

Say whether H17Q shows protein stability index of 2 or more.
1

Reported protein stability index at or above 2? I8T
1

Check the entry H9W : does protein stability index equal or exceed 2?
1
